Biological target: TLR7 (Homo sapiens, UniProt Q9NYK1)
Sequence (Q9NYK1 27-1049): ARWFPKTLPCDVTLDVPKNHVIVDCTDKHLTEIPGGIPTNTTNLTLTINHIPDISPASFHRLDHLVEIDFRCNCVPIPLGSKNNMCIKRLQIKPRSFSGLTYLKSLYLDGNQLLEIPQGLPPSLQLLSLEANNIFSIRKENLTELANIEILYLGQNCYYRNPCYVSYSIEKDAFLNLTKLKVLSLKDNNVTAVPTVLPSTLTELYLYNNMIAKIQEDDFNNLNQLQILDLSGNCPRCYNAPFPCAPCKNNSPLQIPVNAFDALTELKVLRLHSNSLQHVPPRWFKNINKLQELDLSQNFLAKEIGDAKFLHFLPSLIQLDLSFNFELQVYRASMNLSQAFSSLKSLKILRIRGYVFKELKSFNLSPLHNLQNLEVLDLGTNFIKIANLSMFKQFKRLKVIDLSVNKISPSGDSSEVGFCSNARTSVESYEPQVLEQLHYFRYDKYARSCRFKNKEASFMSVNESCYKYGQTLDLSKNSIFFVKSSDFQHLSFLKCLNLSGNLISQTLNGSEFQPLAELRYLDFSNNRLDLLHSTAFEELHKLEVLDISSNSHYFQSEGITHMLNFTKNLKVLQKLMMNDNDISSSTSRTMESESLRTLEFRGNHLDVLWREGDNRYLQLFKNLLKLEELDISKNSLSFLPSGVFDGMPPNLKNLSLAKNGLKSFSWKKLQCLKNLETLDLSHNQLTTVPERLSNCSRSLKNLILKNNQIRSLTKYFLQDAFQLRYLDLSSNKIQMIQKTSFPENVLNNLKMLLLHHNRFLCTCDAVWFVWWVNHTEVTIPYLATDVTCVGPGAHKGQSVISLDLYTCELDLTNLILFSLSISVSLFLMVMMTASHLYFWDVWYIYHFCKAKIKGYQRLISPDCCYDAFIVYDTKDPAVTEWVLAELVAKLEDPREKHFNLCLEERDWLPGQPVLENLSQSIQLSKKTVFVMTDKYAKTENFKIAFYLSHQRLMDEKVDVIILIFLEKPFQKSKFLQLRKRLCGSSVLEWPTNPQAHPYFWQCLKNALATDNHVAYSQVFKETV
Experiment: PBMC assay for TLR7 (IFNα in supernatants by ELISA)
Format: cell-based
Set-up: Peripheral blood mononuclear cells (PBMCs) from human blood were isolated; endogenous in cells; host or cells: human PBMCs
Details: human PBMCs incubated with compound overnight, MC50 = concentration at which 50% of maximum induction is seen
Protocol: Peripheral blood mononuclear cells (PBMCs) from human blood were isolated using BD Vacutainer Cell Preparation Tubes with sodium citrate. Cells were incubated with compound overnight. TLR8 activity was assayed by measuring the amount of TNFα in supernatants by ELISA. TLR7 activity was assayed by measuring the amount of IFNα in supernatants by ELISA (R&D Systems). […] The results of this assay are shown below in Tables 2 and 3. […]
pEC50: −log10 of the molar value.
quantity: pEC50

1. CCCN(CCCO)C(=O)C1=Cc2ccc(-c3ccc(CCC(=O)OCC(C)C)cc3)cc2N=C(N)C1 : 5.00 to 6.00
2. CCCN(CCCO)C(=O)C1=Cc2ccc(-c3ccc(CC(=O)OC)cc3)cc2N=C(N)C1 : 5.00 to 6.00
3. CCCN(CCCO)C(=O)C1=Cc2ccc(-c3ccc4c(c3)C(=O)OC4)cc2N=C(N)C1 : 6.00 to 7.00
4. CCCN(CCC)C(=O)C1=Cc2ccc(-c3ccc(C4CCOC4=O)cc3)cc2N=C(N)C1 (stereo not drawn) : 5.00 to 6.00
5. CCCN(CCC)C(=O)C1=Cc2ccc(-c3ccc(CC(=O)OCC)cc3)cc2N=C(N)C1 : 4.00 to 5.00

Hello, I would appreciate it if you could give pEC50 for each entry below.
1. CCCN(CCCO)C(=O)C1=Cc2ccc(-c3ccc(CC(=O)OCC)cc3)cc2N=C(N)C1
2. CCCN(CCC)C(=O)C1=Cc2ccc(-c3ccc(C(O)CO)cc3)cc2N=C(N)C1 (stereo not drawn)
3. CCCN(CCC)C(=O)C1=Cc2ccc(-c3ccc(CC(=O)O)cc3)cc2N=C(N)C1
4. CCCN(CCC)C(=O)C1=Cc2ccc(-c3ccc(OCC(=O)OCC)cc3)cc2N=C(N)C1

result:
5.00 to 6.00
4.00 to 5.00
4.00 to 5.00
5.00 to 6.00
